Tested on: RXF 393 renal
Assay: NCI-60 one-dose screen, 48 h
Settings: 10 µM unless noted
Method: Cells are grown in 96 well plates and exposed to the test compound for 48 hours. Compounds are tested at a single concentration, which is 10^-5 M for most compounds. The reported endpoint is percent growth (GI% or GIPRCNT), where numbers from 0 - 100% represent growth inhibition, and numbers from -100% - 0 represent cell death. For example, a value of 40 represents 60% growth inhibition. A value of 0 means no net growth occurred over the course of the experiment. […]
The panel holds about 83,000 compounds, 20% with a hit somewhere; the sample as a whole holds those more often. The source made the active and inactive calls. Rule for the calls: active = growth percent below 10; inactive = the rest.
Thanks in advance; please answer with one of these: active, inactive

Worked examples follow.
CN1CCN(CCCOc2cccc3nc(Nc4ccc(Cl)c(F)c4)ccc23)CC1: inactive
C#CCOc1ccc2ncnc(N3CCC(NC(=O)CCl)CC3)c2c1: inactive
O=C(/C=C/c1cc(CN2CCOCC2)c(O)c2ncccc12)c1cc(CN2CCOCC2)c(O)c2ncccc12: inactive
COc1ccc(-c2cc(Nc3ccnc(N4CCOCC4)n3)on2)cc1: active
COc1ccc(/C=N/C2=C(C#N)C(c3ccc(N(C)C)cc3)c3ccc4ccccc4c3O2)cc1 (stereo not given): inactive

What call does the record list for O=c1cc(CSc2nnc(SCc3cc(=O)oc4c3ccc3ccccc34)o2)c2ccc3ccccc3c2o1 ? inactive

Record request — test call for COc1ccc(S(=O)(=O)N2CCCCC2)cc1NC(=O)c1[nH]c(C)c2c1CCCCC2=O active

Which outcome did this test record for the molecule CCOc1cc2ncc(C#N)c(Nc3ccc(OCc4cccc(F)c4)c(Cl)c3)c2cc1NC(=O)CC1CCSS1 (stereo not given) ? inactive

How did this test come out for CCNc1ncnc2c1cnn2C1CCCO1 (stereo not given) ? inactive

Fill in: this test's call for Cn1cc(C(=O)c2nc(-c3c[nH]c4ccccc34)no2)c2ccccc21 is ___ inactive

###

system: 786-0 renal; experiment: NCI-60 one-dose screen, 48 h; conditions: 10 µM unless noted
Compounds without any hit were thinned out: in the full panel of roughly 83,000, 20% have a hit. The source made the active and inactive calls. How the source made its calls: active means growth percent below 10; inactive means the rest.
Parameter call: string, one of active, inactive

Here are 8 compounds together with their reported answers.
Cn1cc(-c2nonc2-c2c[nH]c3ccc(F)cc23)c2cccnc21: inactive
COc1nc2c(c(=O)n1C)CN(Cc1ccccc1)C=N2: inactive
Clc1ccc2c(NCCCNc3nc(-n4ccnc4)nc4ccccc34)ccnc2c1: inactive
Cc1ccc2c(c1)C(=O)/C(=C/c1cccc(OCC(=O)c3ccc(Cl)cc3)c1)CS2: inactive
Cc1ccc2c(C(C[N+](=O)[O-])c3ccco3)c(-c3ccccc3)[nH]c2c1 (centres undefined): inactive
C=C(C)[C@@H]1CC[C@]2(C(=O)OC)CC[C@]3(C)[C@H](CC[C@@H]4[C@@]5(C)C/C(=C/c6cccc(I)c6)C(=O)C(C)(C)[C@@H]5CC[C@]43C)[C@@H]12: inactive
N#CN1CCC[C@H]1C(=O)N1CCc2c(-c3[nH]nc4ncccc34)cccc21: active
Cc1cc(N2CCCCC2)nc(NC2CCCC(Nc3ccnc4cc(Cl)ccc34)C2)n1 (centres undefined): active

# next compound below
Name the outcome recorded for COc1ccc(/C=C/C(=O)c2ccc(O)c(CN3CCN(c4cc5c(cc4F)c(=O)c(C(=O)O)cn5C4CC4)CC3)c2)cc1 in the assay. inactive
